Values were extracted from the supplement of paper PMC10567573.

B1: PKD2L1 (parent)
chain: YSGGGYYLDLPGSRQGSAEALRAL

Variants of: B1
Test: protein stability index of a GFP-peptide fusion (GPS, HEK-293T) (PSI 1-6); higher = more stable;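 further: lentivirally expressed fusions sorted by FACS into six bins by GFP to DsRed ratio, PSI derived from sequencing read proportions per bin multiplied by bin number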
Details: c terminus: a fixed tail appended
Where protein stability index equals or exceeds 2, the correct label is Met; where it does not, the label is Not met.

Example cases with answers are listed next.
YSGGGYYLDLPGSCQGSAEALRAL [R14C] ... Not met
YSGGGYYHDLPGSRQGSAEALRAL [L8H] ... Met

Incoming: Is the recorded value of protein stability index equal to or greater than 2 for this variant? YSGGGYYLDLPGSRQGHAEALRAL [S17H]
Outgoing: Met

Incoming: Subsequent entry: YSGGGYYLDLPGSRQGSAEALGAL [R22G]
Outgoing: Not met
